Source: patent US12606557B2

- Method: Blood pharmacokinetics after a single intraperitoneal dose
- Assay type: in vivo, male CD1 mice
- Experimental Conditions: male, CD1, mouse, in vivo, 52 mg/kg, 52 mg/kg IP, 0.5 hr; read-out: Blood Concentration, Mean
Measured Property: concentration at 0.5 hr (ng/mL)

| Smiles Text | Measured Property | Recorded Number |
| --- | --- | --- |
| COc1ccc(Cn2ccc3ccc(C(=O)NO)cc32)cc1 | concentration at 0.5 hr | 3820 |

----------
- Method: Blood pharmacokinetics after a single intraperitoneal dose
- Type: in vivo, male CD1 mice
- Experimental Conditions: male, CD1, mouse, in vivo, 10.4 mg/kg, 10.4 mg/kg IP, 8 hr; read-out: Blood Concentration, individual animal
Measured Property: concentration at 8 hr

| Smiles Text | Result |
| --- | --- |
| COc1ccc(Cn2ccc3ccc(C(=O)NO)cc32)cc1 | 23.9 ng/mL |
